Recorded values, source ChEMBL document CHEMBL4373727.

Test system: Enterococcus faecalis
Test: Antibacterial activity against Enterococcus faecalis ATCC 51299 at 100 uM incubated for 24 hrs
Format: functional, organism-based
The source made the active and inactive calls. The rule behind the calls is not given here.
I would appreciate it if you answered using one of these outcomes: active, inactive

smiles text	label
O=C(NCc1ccc(CN2CCOCC2)cc1)c1csc2nc[nH]c(=O)c12	inactive
CCCCCCCCN(CC)Cc1ccc(CNC(=O)c2csc3nc[nH]c(=O)c23)cc1	inactive
Cl.NCCCCNCc1ccc(CNC(=O)c2csc3nc[nH]c(=O)c23)cc1	inactive

Lookup: Dear all, I need the recorded test outcome for CCCCNCc1ccc(CNC(=O)c2csc3nc[nH]c(=O)c23)cc1 , thank you.
Found: inactive

Lookup: Dear all, I need the recorded test outcome for CCCCCCCCCCNCc1ccc(CNC(=O)c2csc3nc[nH]c(=O)c23)cc1 , thank you.
Found: active

Lookup: Dear all, I need the recorded test outcome for Cl.NCCOCCOCCNCc1ccc(CNC(=O)c2csc3nc[nH]c(=O)c23)cc1 , thank you.
Found: inactive

Lookup: Dear all, I need the recorded test outcome for CCCCCCCCN(Cc1ccccc1)Cc1ccc(CNC(=O)c2csc3nc[nH]c(=O)c23)cc1 , thank you.
Found: inactive

Lookup: Dear all, I need the recorded test outcome for CCN(Cc1ccc(CNC(=O)c2csc3nc[nH]c(=O)c23)cc1)C1CCCCC1 , thank you.
Found: inactive
